Numbers sourced from patent US10670605B2.

Quick list: isoTOP-ABPP ratio (reactivity profile), Q8TAQ2_C145 per entry.
# tested_on: UniProtKB Q8TAQ2
# Sequence (Q8TAQ2 whole entry): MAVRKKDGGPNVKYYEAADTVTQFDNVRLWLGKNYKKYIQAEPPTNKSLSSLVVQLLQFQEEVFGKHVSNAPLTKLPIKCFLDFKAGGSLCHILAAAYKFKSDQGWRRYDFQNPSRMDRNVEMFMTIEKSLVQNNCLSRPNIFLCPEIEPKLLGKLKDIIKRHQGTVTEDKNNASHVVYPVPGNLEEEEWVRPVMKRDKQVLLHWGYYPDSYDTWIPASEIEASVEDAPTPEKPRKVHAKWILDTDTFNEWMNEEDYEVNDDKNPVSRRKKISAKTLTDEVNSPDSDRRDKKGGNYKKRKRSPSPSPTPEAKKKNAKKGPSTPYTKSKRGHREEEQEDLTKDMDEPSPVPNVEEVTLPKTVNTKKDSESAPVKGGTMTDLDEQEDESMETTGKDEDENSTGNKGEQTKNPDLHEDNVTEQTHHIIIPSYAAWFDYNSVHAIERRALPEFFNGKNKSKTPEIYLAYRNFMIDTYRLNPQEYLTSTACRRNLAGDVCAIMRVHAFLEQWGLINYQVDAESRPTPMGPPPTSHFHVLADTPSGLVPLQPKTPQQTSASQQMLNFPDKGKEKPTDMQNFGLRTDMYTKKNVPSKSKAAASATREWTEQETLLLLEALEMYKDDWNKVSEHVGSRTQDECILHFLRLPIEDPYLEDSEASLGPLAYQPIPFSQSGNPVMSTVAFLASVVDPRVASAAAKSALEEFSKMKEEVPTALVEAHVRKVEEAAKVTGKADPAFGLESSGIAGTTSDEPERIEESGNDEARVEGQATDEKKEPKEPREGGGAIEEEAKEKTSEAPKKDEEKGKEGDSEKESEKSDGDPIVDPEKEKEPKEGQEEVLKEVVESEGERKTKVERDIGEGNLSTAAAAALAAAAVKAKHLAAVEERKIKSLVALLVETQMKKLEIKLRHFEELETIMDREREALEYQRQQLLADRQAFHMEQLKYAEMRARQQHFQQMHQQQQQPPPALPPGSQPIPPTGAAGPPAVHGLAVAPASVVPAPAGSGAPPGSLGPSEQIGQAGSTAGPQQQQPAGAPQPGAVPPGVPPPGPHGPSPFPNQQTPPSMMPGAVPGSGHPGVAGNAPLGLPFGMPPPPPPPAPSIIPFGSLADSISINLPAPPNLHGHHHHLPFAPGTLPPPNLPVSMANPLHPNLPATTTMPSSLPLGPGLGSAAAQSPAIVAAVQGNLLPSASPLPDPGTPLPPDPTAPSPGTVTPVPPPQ
# test_summary: Competitive isoTOP-ABPP, cell lysates
# Assay type: binding
# recorded_conditions: 500 μm in-vitro ramos
# print the numeric value only

# smiles_input, measurement
records = [
    ("C=CC(=O)N(Cc1cccnc1)c1ccc(Oc2ccccc2)c(C(F)(F)F)c1", 1.2),
    ("O=C(CCl)N1CCC(C(O)(c2ccccc2)c2ccccc2)CC1", 3.9),
]

For the next question, use this compound.
Param item = CC(C)CCOCCNC(=O)CCl ; retrieve measured isoTOP-ABPP ratio (reactivity profile), Q8TAQ2_C145.
1.2
